Origin of measurements: PubChem BioAssay (NCI)

measurement_description: NCI Yeast Anticancer Drug Screen. Data for the rad50 strain (AID 155);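 note: 0% = growth of vehicle-only cultures of the same strain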
condition_description: S. cerevisiae rad50 strain growth inhibition; at 50.0 µM
The panel holds about 79,000 compounds, 15% with a hit somewhere; the sample as a whole holds those more often. Active and inactive are the calls of the source. Cut-off read from the data, not from the text of the source: active = growth inhibition above about 70%; inactive = the rest.
Entry note: the call must match one of active, inactive

Example entries begin here.
Cc1[nH]c(=O)c2oc3cc4ccccc4cc3c2c1C(=O)O ... inactive
Cc1cc2c3c(nc2c2cc[nH]c(C)c12)CCCC3 ... active
CC(=O)Nc1ncc(Sc2ccc([N+](=O)[O-])cc2)s1 ... inactive
C(=C\C1OCCO1)/c1ccccc1 ... inactive
CC(C)(O)C(O)(c1ccccc1)c1ccccc1 ... inactive

(Q) // param item: [N-]=[N+]=Nc1ccccc1Oc1ccccc1 ; yields the recorded call
(A) inactive

(Q) // param item: C=C1C(=O)OC2C1C(OC(=O)/C(C)=C/C)CC(O)(CCl)C1C(O)C=C(C)C21O (configuration not stated) ; yields the recorded call
(A) inactive

(Q) // param item: O=CC12c3ccccc3C(c3ccccc31)C1C(=O)NC(=O)C12 (configuration not stated) ; yields the recorded call
(A) inactive

(Q) // param item: N#Cc1c(Cl)cccc1N1CCSCC1 ; yields the recorded call
(A) inactive

(Q) // param item: O=C(O)c1cccc(S(=O)(=O)NN2C(=O)CSC2c2ccccc2Cl)c1 (configuration not stated) ; yields the recorded call
(A) inactive

(Q) // param item: N#Cc1cnc(=S)n(-c2cc(C(F)(F)F)cc(C(F)(F)F)c2)c1N ; yields the recorded call
(A) inactive

(Q) // param item: Oc1cccc2c1N1CCN2CC1 ; yields the recorded call
(A) inactive

====

measurement_description: NCI Yeast Anticancer Drug Screen. Data for the rad50 strain (AID 155);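 note: 0% = growth of vehicle-only cultures of the same strain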
condition_description: S. cerevisiae rad50 strain growth inhibition; at 50.0 µM; active compounds read high
Protocol: Growth inhibition of yeast strains with defined genetic alterations is measured as a screen for potential anti-cancer activity. Selected strains with alterations in DNA damage repair or cell cycle control were exposed to compounds and growth inhibition was measured relative to vehicle treated controls. The strain used in this assay is rad50
About 79,000 compounds went through this panel and 15% of them were active in at least one assay; those are over-represented in the sample as a whole.
experimental_endpoint: growth inhibition (%)
Respond numerically; units are % and should not be typed.

Reference set, count: 10
O=C(Nc1cc2[nH]c(=O)c3ccccc3c2cc1[N+](=O)[O-])C(F)(F)F ... 40
COC12OCCN(C)C1=CC(=O)C1=NNC(C)C12 (stereo not drawn) ... -37
O=[N+]([O-])c1ccc(/C=N\N=P(c2ccccc2)(c2ccccc2)c2ccccc2)cc1 ... -6.25
O=C(c1ccccc1)C1C(c2ccccc2)N1C(=O)c1ccccc1 (stereo not drawn) ... 9.8
CC(C)(c1ccsc1)c1sccc1C(=O)O ... -4.7
COC(=O)C(=O)c1c(C(=O)OC)nc2[nH]n(-c3ccccc3)c(=O)c2c1Cc1ccccc1 ... -5.85
O=C1CN(c2cccc(Cl)c2)C(=O)CN1/N=C/c1ccc(O)c(O)c1 ... -29.1
O=c1cc(-c2cccc(OC(F)(F)F)c2)[nH]c2cc3c(cc12)OCO3 ... -6.25
O=C(NC(=S)Nc1ccc(Cl)c(Cl)c1)c1cccc([N+](=O)[O-])c1 ... -6.45
CCCCNC(=O)OCc1cnc(C)n1Cc1ccccc1 ... 2.8

(Q) # lookup: growth inhibition of O=P(c1ccccc1)(c1ccccc1)C(O)c1cccs1 (stereo not drawn)
(A) 12.8

(Q) # lookup: growth inhibition of Cc1cnn(-c2ccccc2)[n+]1[O-]
(A) 0.65

(Q) # lookup: growth inhibition of Cc1ccccc1-c1nc(/C=C2\C(=O)C=Cc3ccccc32)c(O)o1
(A) -17.3

(Q) # lookup: growth inhibition of CCCn1c(C)nc2cc(C)cc(N)c21
(A) 19.2

(Q) # lookup: growth inhibition of O=C(c1ccccc1)c1ccccc1C(=O)c1ccccc1
(A) 77

(Q) # lookup: growth inhibition of N=C(c1ccc2ccccc2c1)c1ccccc1Cc1ccccc1
(A) 17.2

(Q) # lookup: growth inhibition of CN(C)C(=O)Nc1cccc(OS(=O)(=O)N(C)C)c1
(A) 5.4

(Q) # lookup: growth inhibition of CC(=O)c1cccc(C(C)=O)n1
(A) -24.2

(Q) # lookup: growth inhibition of O=C(O)C(=O)Cc1ccc(Br)cc1[N+](=O)[O-]
(A) 5.45

(Q) # lookup: growth inhibition of CC(c1ccc2ccc3cccc4ccc1c2c34)C(C(=O)O)C(=O)O (stereo not drawn)
(A) -0.85

(Q) # lookup: growth inhibition of CC(C)(C)c1ccc(SCC#CCOc2ccc(Cl)cc2)cc1
(A) -6.2
